Molecular target: H1975 (EGFR L858/T790M) (Homo sapiens, UniProt P00533, L858R/T790M)
Sequence (P00533 25-1210 T790M/L858R): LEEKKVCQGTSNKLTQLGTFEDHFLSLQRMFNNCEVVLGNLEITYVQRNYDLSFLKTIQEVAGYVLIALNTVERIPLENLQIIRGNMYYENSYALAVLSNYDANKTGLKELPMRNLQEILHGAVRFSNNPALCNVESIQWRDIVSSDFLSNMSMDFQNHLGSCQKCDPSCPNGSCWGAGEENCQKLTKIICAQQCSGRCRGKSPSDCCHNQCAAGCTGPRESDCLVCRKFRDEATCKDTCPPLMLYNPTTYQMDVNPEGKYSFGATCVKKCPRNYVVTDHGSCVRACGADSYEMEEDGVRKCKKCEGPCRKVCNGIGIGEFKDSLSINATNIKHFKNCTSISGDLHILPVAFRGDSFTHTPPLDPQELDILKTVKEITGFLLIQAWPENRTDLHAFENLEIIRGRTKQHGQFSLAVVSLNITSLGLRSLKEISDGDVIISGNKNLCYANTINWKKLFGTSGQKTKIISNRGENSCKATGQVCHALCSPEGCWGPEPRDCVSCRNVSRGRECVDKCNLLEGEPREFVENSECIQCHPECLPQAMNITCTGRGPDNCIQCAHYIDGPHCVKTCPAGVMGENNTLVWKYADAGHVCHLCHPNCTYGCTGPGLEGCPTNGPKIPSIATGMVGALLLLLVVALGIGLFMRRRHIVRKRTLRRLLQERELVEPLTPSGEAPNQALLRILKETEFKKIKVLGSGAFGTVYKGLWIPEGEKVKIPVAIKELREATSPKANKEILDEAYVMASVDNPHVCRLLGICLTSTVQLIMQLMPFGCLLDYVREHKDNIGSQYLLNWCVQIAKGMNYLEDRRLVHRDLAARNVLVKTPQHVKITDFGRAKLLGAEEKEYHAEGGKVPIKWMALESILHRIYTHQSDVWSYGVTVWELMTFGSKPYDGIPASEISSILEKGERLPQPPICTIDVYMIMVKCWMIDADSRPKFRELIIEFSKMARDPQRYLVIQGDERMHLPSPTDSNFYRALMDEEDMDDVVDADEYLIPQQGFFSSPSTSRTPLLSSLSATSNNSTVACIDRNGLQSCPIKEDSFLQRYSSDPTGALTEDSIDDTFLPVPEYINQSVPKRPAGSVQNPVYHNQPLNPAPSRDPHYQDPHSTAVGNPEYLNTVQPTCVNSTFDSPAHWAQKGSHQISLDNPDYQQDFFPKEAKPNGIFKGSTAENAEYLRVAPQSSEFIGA
Assay: EGFR target modulation in H1975 cell line (phospho-EGFR Y1173 ELISA)
IC50 strictly less than 10 nM = yes. Otherwise no.

See these solved cases before continuing.
INSERT INTO measurements (compound, group_label) VALUES
  ('O=C(Nc1nc2cccc(Cl)c2n1[C@@H]1CCCCN(C(=O)/C=C/CN2CCCC2)C1)c1ccnnc1', 'yes'),
  ('Cc1cccc2nc(NC(=O)c3cccc(F)c3F)n(C3CCCCN(C(=O)/C=C/CN(C)C)C3)c12 (stereo not drawn)', 'no'),
  ('Cc1cc(C(=O)Nc2nc3cccc(Cl)c3n2[C@@H]2CCCCN(C(=O)/C=C/CN3CCC3)C2)ccn1', 'no'),
  ('Cc1cc(C(=O)Nc2nc3cccc(Cl)c3n2[C@@H]2CCCCN(C(=O)C3=CCCN(C)C3)C2)ccn1', 'no'),
  ('COc1ccc(C(=O)Nc2nc3cccc(C)c3n2C2CCCCN(C(=O)/C=C/CN(C)C)C2)cn1 (stereo not drawn)', 'yes'),
  ('Cc1ccc(C(=O)Nc2nc3cccc(C)c3n2C2CCCCN(C(=O)/C=C/CN(C)C)C2)cn1 (stereo not drawn)', 'no'),
  ('C=CC(=O)N1CCCC[C@@H](n2c(NC(=O)c3cc(C)nc(C)c3)nc3cc(CN4CC[C@@H](F)C4)cc(C)c32)C1', 'yes'),
  ('Cc1cccc2nc(NC(=O)c3ccncc3)n(C3CCCCN(C(=O)/C=C/CN(C)C)C3)c12 (stereo not drawn)', 'yes');

Note: attention shifts to another entry.
Request: Dear reviewer, please state whether "Cc1cc(C(=O)Nc2nc3cccc(Cl)c3n2[C@@H]2CCCCN(C(=O)C3=CCN(C)CC3)C2)ccn1" has IC50 strictly beneath 10 nM.
Response: no

Cited source for all entries: patent US9440957B2
